system: TRZAWR (Wheat, Winter, cv Riband); test: Preemergence herbicidal evaluation; assay type: in vivo, Triticum aestivum; conditions: Rate 0.0620 kg/ha; rated 4-5 weeks after treatment
TEST READOUT: Preemergence herbicidal rating TRZAWR
Note: the reply should be a number with no unit written.

stdin: Dear colleague, I am looking for the recorded Preemergence herbicidal rating TRZAWR of the following compound: C#CCOC(=O)COc1ccsc1-c1nsc2ccc(-n3c(=O)cc(C(F)(F)F)n(C)c3=O)cc12 [Compound 39]
stdout: 0.0

stdin: Now consider Cc1ccc(-c2nsc3ccc(-n4c(=O)cc(C(F)(F)F)n(C)c4=O)cc23)nc1 [Compound 42] and answer again.
stdout: 0.0

stdin: Now consider Cn1c(C(F)(F)F)cc(=O)n(-c2ccc3snc(-c4nccs4)c3c2)c1=O [Compound 53] and answer again.
stdout: 1.0

stdin: Now consider Cn1c(C(F)(F)F)cc(=O)n(-c2ccc3snc(-c4ccco4)c3c2)c1=O [Compound 60] and answer again.
stdout: 1.0
